target: Concanavalin-A (Canavalia ensiformis); assay: ConA small-molecule binders, primary screen, artefact control for SMM control protein annotation, biochemical, small-molecule microarray, Alexa647 label, 635 nm (AID 1127); conditions: ConA-A647 binding fluorescence, higher = more signal;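 note: z combines 667 nm emission intensity with signal-to-noise across three replicate slides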
Reported values of composite z-score for individual entries
Number, no unit, nothing else.

Some compounds with recorded composite z-score:
compound="CC1(C)OCC(C(O)C2=CCCCC2=O)CO1 (stereo unspecified)" numeric_value=1.01
compound=CC(C)[Si]1(C(C)C)O[C@@H](c2ccccc2)c2cc(C3CC3)nc(-c3ccccc3)c21 numeric_value=-0.77
compound=CC(=O)OC[C@H]1O[C@@H](ON=C(C)CCN2CCc3nc(-c4ccccc4)c(-c4ccccc4)cc3C2)[C@H](OC(C)=O)[C@@H](OC(C)=O)[C@@H]1OC(C)=O numeric_value=0.878
compound=O=C1[C@H]2[C@H]3[C@H](O)[C@H](O)CC(=NO[C@@H]4O[C@H](CO)[C@@H](O)[C@H](O)[C@H]4O)[C@@H]3CC[C@H]2C(=O)N1c1ccc(F)cc1F numeric_value=0.262

composite z-score reading for CC(C)NC(=O)[C@@]1(C)c2ccccc2C(=O)N(Cc2cc(F)cc(C(F)(F)F)c2)[C@H]1c1ccc(CO)cc1 : 0.674

Sample COC(=O)[C@@H]1CC[C@H](C)[C@@H](c2ccc(C)cc2)N1C(=O)c1ccc(C=NOC[C@@H](O)COCc2ccco2)cc1 ; composite z-score observed: -3.62
